Reported pEC50 values for a set of molecules
# ASSAYED TARGET: RORγ-LBD (Homo sapiens)
# Construct: made in house; host or cells: SF9 cells (baculovirus); used as diluted lysate
# Sequence (P51449 269-508 limits assumed): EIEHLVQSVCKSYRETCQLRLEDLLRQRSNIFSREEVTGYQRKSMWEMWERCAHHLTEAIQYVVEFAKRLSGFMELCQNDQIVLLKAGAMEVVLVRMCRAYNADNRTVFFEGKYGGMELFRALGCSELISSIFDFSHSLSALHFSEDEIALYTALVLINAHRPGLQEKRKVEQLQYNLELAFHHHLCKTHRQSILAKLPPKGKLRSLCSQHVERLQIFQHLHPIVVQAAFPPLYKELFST
# EXPERIMENT SUMMARY: RORγ-Ligand Binding Domain (LBD) TR-FRET Assay
# Assay type: biochemical
# EXPERIMENTAL CONTEXT: RORγ-LBD TR-FRET
pEC50: −log10 of the molar value.
MEASURED PROPERTY: pEC50

| MOLECULE | ASSAYED TARGET | OBSERVED MEASUREMENT |
| --- | --- | --- |
| COC(=O)CC[C@H]1CN(S(=O)(=O)c2cn(C(F)F)nc2C)c2cc(/C=C(\C)c3c(F)cccc3Cl)ccc2O1 [Example 86X] | RORγ-LBD (Homo sapiens) | > 6.30 |
| CCOc1nn(CC)cc1S(=O)(=O)N1C[C@H](CCC(=O)OC)Oc2ccc(/C=C/c3cccc(OC)n3)cc21 [Example 89T] | RORγ-LBD (Homo sapiens) | < 5.00 |
| O=C(O)CC[C@H]1CN(S(=O)(=O)c2cccc(C(F)(F)F)c2)c2cc(/C=C/c3ccnn4cccc34)ccc2O1 [Example 89BM] | RORγ-LBD (Homo sapiens) | 5.30 to 6.30 |
| CCOc1ncc(Cl)cc1S(=O)(=O)N1C[C@H](CCC(=O)O)Oc2ccc(/C=C(\C)c3c(F)cccc3Cl)cc21 | RORγ-LBD (Homo sapiens) | > 6.30 |
| Cc1nn(C)c2ncc(S(=O)(=O)N3C[C@H](CCC(=O)O)Oc4ccc(/C=C/c5c(F)cccc5Cl)cc43)cc12 [Example 89DX] | RORγ-LBD (Homo sapiens) | 5.30 to 6.30 |
| CCOc1nn(CC)cc1S(=O)(=O)N1C[C@H](CCC(=O)OC)Oc2ccc(/C=C/c3c(F)cccc3C(F)(F)F)cc21 | RORγ-LBD (Homo sapiens) | > 6.30 |
| COc1nn2c(c1S(=O)(=O)N1C[C@H](CCC(=O)O)Oc3ccc(/C=C(\C)c4c(F)cccc4Cl)cc31)CCCC2 [Example 86K] | RORγ-LBD (Homo sapiens) | > 6.30 |
